The measurements presented in this section are drawn from ChEMBL document CHEMBL1124266.

Field: pIC50. Provide a value for each of the compounds that follow.
System: L1210
test: In vitro concentration required to inhibit 50% growth of murine L1210 leukemia cells
Assay type: functional
run conditions: Mus musculus, read-out: ID50 (the source's name)
Give bare numbers, as −log10 of the molar value.

>>> print(df.to_string())
                                   compound  numeric_value
0  Cc1c[nH]c2c1C13CC1CN(C(=O)c1cc4cc(NC(=O)c5cc6ccccc6[nH]5)ccc4[nH]1)C3=CC2=O (stereo not given)          11.00
1  Cc1c[nH]c2c1C13CC1CN(C(=O)c1cc4cc(NC(N)=O)ccc4[nH]1)C3=CC2=O (stereo not given)           9.22
2  Cc1c[nH]c2c1C13CC1CN(C(=O)c1ccccn1)C3=CC2=O (stereo not given)           8.00
3  CCCCCC(=O)Nc1ccc2nc(C(=O)N3CC4CC45C3=CC(=O)c3[nH]cc(C)c35)ccc2c1 (stereo not given)           7.00

# value lookup — system L1210, readout pIC50, item Cc1c[nH]c2c1C13CC1CN(C(=O)c1cc4ccccc4[nH]1)C3=CC2=O (stereo not given) 9.70

----------
Test system: L1210
test: In vitro concentration required to inhibit 50% growth of murine L1210 leukemia cells
Type: functional
run conditions: Mus musculus, read-out: ID50 (the source's name)
pIC50: −log10 of the molar value.
Rule: pIC50 of 8 or more gives criterion met; anything lower gives criterion not met.

>>> df
                                   compound        class_label
0  CC1=C(C(=O)N2CC3CC34C2=CC(=O)c2[nH]cc(C)c24)Cc2ccccc21 (stereo not given)  criterion not met

Does pIC50 meet or surpass 8 for Cc1c[nH]c2c1C13CC1CN=C3C=C2O (stereo not given) ? criterion not met

----------
test: Lipophilic/hydrophilic partitioning (RP-TLC)
Assay type: ADME
run conditions: 2:1 DMF-saline
experimental endpoint: Rf

Here are 2 compounds together with their reported answers.
>>> df
                                   compound  result
0  Cc1c[nH]c2c1C13CC1CN(C(=O)c1cc4ccccc4[nH]1)C3=CC2=O (stereo not given)    0.45
1  Cc1c[nH]c2c1C13CC1CN(C(=O)c1ccc(NC(=O)c4ccccc4)cc1)C3=CC2=O (stereo not given)    0.42

Go through the items and report each one's Rf.
1. COc1c(O)ccc2cc(C(=O)N3CC4CC45C3=CC(=O)c3[nH]cc(C)c35)[nH]c12 (stereo not given)
2. Cc1c[nH]c2c1C13CC1CN(C(=O)c1ccc4ccccc4n1)C3=CC2=O (stereo not given)
3. Cc1c[nH]c2c1C13CC1CN(C(=O)c1ccc4ccccc4c1)C3=CC2=O (stereo not given)

1. 0.63
2. 0.5
3. 0.46

----------
Tested on: Nucleic Acid
test: Induced circular dichroism (ICD), expressed as molar ellipticity, in the presence of calf-thymus DNA
Type: functional
run conditions: Bos taurus
experimental endpoint: ICD
Numbers only.

Example cases with answers are listed next.
In [3]: df
Out[3]:
                                   molecule  numeric_value
0  Cc1c[nH]c2c1C13CC1CN(C(=O)c1cc4cc(NC(=O)c5cc6cc(NC(N)=O)ccc6[nH]5)ccc4[nH]1)C3=CC2=O (configuration not stated)          0.075
1  Cc1c[nH]c2c1C13CC1CN(C(=O)c1cc4ccccc4o1)C3=CC2=O (configuration not stated)          0.006
2  Cc1c[nH]c2c1C13CC1CN(C(=O)c1ccc4ccccc4n1)C3=CC2=O (configuration not stated)          0.001

Please give ICD for each item listed below.
1. Cc1c[nH]c2c1C13CC1CN(C(=O)c1cc4ccccc4[nH]1)C3=CC2=O (configuration not stated)
2. CCCCCC(=O)N1CC2CC23C1=CC(=O)c1[nH]cc(C)c13 (configuration not stated)
3. Cc1c[nH]c2c1C13CC1CN(C(=O)c1cc4cc(NC(=O)c5ccccc5)ccc4[nH]1)C3=CC2=O (configuration not stated)

[0.036, 0, 0.036]

----------
Task for the reader: assign each of the following compounds its reported Rf.
test: Lipophilic/hydrophilic partitioning (RP-TLC)
Type: ADME
run conditions: 2:1 DMF-saline
One number for each entry.

>>> print(df.to_string())
                                   compound  experimental_endpoint  numeric_value
0  Cc1c[nH]c2c1C13CC1CN(C(=O)c1cc4cc(NC(=O)c5ccccc5)ccc4[nH]1)C3=CC2=O (centres undefined)                     Rf           0.43
1  Cc1c[nH]c2c1C13CC1CN(C(=O)c1cc4cc(NC(=O)c5cc6ccccc6o5)ccc4[nH]1)C3=CC2=O (centres undefined)                     Rf            0.3
2  Cc1c[nH]c2c1C13CC1CN(C(=O)c1cc4cc(NC(=O)c5cc6cc(NC(=O)c7ccccc7)ccc6[nH]5)ccc4[nH]1)C3=CC2=O (centres undefined)                     Rf            0.3

Give the measured Rf of CCCCCCCCCC(=O)N1CC2CC23C1=CC(=O)c1[nH]cc(C)c13 (centres undefined) . 0.07

----------
System: L1210
test: In vitro concentration required to inhibit 50% growth of murine L1210 leukemia cells
Type: functional
run conditions: Mus musculus, read-out: ID50 (the source's name)
experimental endpoint: pIC50
Numbers only, as −log10 of the molar value.

Here is how some compounds turned out for pIC50.
>>> print(df.to_string())
                                   compound  system_name  experimental_endpoint  numeric_value
0  Cc1c[nH]c2c1C13CC1CN(C(=O)c1cc4cc(NC(=O)c5cc6cc(NC(N)=O)ccc6[nH]5)ccc4[nH]1)C3=CC2=O (stereo not given)        L1210                  pIC50           9.52
1  CCCCCC(=O)N1CC2CC23C1=CC(=O)c1[nH]cc(C)c13 (stereo not given)        L1210                  pIC50           8.52
2  Cc1c[nH]c2c1C13CC1CN(C(=O)c1cc4ccccc4o1)C3=CC2=O (stereo not given)        L1210                  pIC50          10.40
3  Cc1c[nH]c2c1C13CC1CN(C(=O)c1cc4ccccc4n1C)C3=CC2=O (stereo not given)        L1210                  pIC50           8.00

Could you now look at the following compound, please?
GET /values?readout=pIC50&system=L1210&item= Cc1c[nH]c2c1C13CC1CN(C(=O)c1cc4ccccc4s1)C3=CC2=O (stereo not given) 9.52

----------
Give log10 IC50 for every item shown.
System: L1210
test: In vitro concentration required to inhibit 50% growth of murine L1210 leukemia cells
Assay type: functional
run conditions: Mus musculus, read-out: ID50 (the source's name)
# log10 transformed; quantity=IC50; unit=nM

                                   compound  numeric_value
0  Cc1c[nH]c2c1C13CC1CN(C(=O)c1cc4cc(NC(=O)c5cc6cc(NC(=O)c7ccccc7)ccc6[nH]5)ccc4[nH]1)C3=CC2=O (stereo not drawn)          -2.00
1  Cc1c[nH]c2c1C13CC1CN(S(C)(=O)=O)C3=CC2=O (stereo not drawn)           2.00
2  CC(=O)N1CC2CC23C1=CC(=O)c1[nH]cc(C)c13 (stereo not drawn)           1.30
3  COc1ccc2[nH]c(C(=O)N3CC4CC45C3=CC(=O)c3[nH]cc(C)c35)cc2c1 (stereo not drawn)          -2.00

For the 2 compounds below, give their log10 IC50 values.
1. Cc1c[nH]c2c1C13CC1CN(C(=O)OC(C)(C)C)C3=CC2=O (stereo not drawn)
2. Cc1c[nH]c2c1C13CC1CN(C(=O)c1ccc[nH]1)C3=CC2=O (stereo not drawn)

2.48
0.30

Each of the following entries comes with a recorded value; kindly state log10 IC50 for each.
1. COc1c(O)ccc2cc(C(=O)N3CC4CC45C3=CC(=O)c3[nH]cc(C)c35)[nH]c12 (stereo not drawn)
2. Cc1c[nH]c2c1C13CC1CN(C(=O)c1cc4cc(NC(=O)c5ccccc5)ccc4[nH]1)C3=CC2=O (stereo not drawn)

1: -1.00; 2: -1.15
